Each recorded value in this set is attributed to patent US7109220B2.

pIC50: −log10 of the molar value.
For VEGF-R2 kinase (Rattus norvegicus, UniProt O08775), measured pIC50 is reported for the entries below.

Some solved entries appear below for comparison.
Nc1nc(Nc2ccc(S(N)(=O)=O)cc2)ccc1C(=O)c1c(F)cccc1F = < 5.00
Nc1ccc(C(=O)c2ccccc2F)c(N)n1 = < 5.00
CC(=O)Nc1ccccc1Nc1ccc(C(=O)c2c(F)cccc2F)c(N)n1 = < 4.00
Nc1nc(Nc2ccccc2NC(=O)c2ccccc2)ccc1C(=O)c1c(F)cccc1F = < 4.00
CCCCOc1cc(NC(=O)Nc2ccccc2)nc(N)c1C(=O)c1c(F)cccc1F = < 4.00
CN(C)S(=O)(=O)c1ccc(Nc2ccc(C(=O)c3c(F)cccc3F)c(N)n2)cc1 = < 5.00
CNc1ccc(Nc2ccc(C(=O)c3c(F)cccc3F)c(N)n2)cc1 = < 5.00
CN(C)S(=O)(=O)c1ccc(Nc2ccc(C(=O)c3ccccc3)c(N)n2)cc1 = < 4.00

I would be grateful if you could share the reported pIC50 for `CCCCOc1cc(Nc2ccc(S(N)(=O)=O)cc2)nc(N)c1C(=O)c1c(F)cccc1F` .
< 4.00

Another compound: `Nc1ccc(C(=O)c2cccs2)c(N)n1`
< 4.00

Another compound: `Nc1nc(Nc2ccc(S(=O)(=O)N(Cc3ccccc3)Cc3ccccc3)cc2)ccc1C(=O)c1c(F)cccc1F`
< 5.00

Another compound: `Nc1nc(Nc2ccccc2)ccc1C(=O)c1c(F)cccc1F`
< 4.00

Another compound: `Nc1nc(Nc2ccccn2)ccc1C(=O)c1c(F)cccc1F`
< 4.00

Another compound: `Nc1nc(Nc2ccccc2[N+](=O)[O-])ccc1C(=O)c1c(F)cccc1F`
< 5.00

* * *

Molecular target: HER2 kinase (Homo sapiens)
Construct: polyhistidine (N); 24 additional non-native amino acids (between the His tag and HER2) (N)
Sequence (P04626 676-1255 limits assumed): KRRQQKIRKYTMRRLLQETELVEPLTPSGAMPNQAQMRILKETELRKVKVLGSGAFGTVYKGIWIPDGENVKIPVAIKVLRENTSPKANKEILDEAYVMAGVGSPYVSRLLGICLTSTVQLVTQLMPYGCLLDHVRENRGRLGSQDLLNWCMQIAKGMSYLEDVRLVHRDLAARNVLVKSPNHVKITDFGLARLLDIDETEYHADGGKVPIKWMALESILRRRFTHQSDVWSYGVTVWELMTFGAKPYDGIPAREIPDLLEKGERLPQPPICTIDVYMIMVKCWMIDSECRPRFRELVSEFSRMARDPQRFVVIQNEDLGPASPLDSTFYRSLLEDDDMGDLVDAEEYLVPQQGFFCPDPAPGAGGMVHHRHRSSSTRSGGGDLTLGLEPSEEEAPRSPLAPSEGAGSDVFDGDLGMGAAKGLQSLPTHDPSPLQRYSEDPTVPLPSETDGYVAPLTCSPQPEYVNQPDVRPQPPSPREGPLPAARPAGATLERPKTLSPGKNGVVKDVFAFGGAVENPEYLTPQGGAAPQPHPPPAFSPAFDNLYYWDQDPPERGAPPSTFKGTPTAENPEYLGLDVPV
Experiment: HER-2 Kinase Screening Assay
Assay type: biochemical
Settings: HER2 cytoplasmic domain construct, 10 μM ATP
Recorded IC50, one value per entry.

Some solved entries appear below for comparison.
CCCCOc1cc(N)nc(N)c1C(=O)c1c(F)cccc1F [Cpd 31] = 1.14 µM
CCCCOc1cc(Nc2ccc(S(=O)(=O)N(C)C)cc2)nc(N)c1C(=O)c1c(F)cccc1F [Cpd 35] = > 100 µM

Now, please, on to the next molecule.
I would be grateful if you could share the reported IC50 for CCCCOc1cc(NC(=O)Nc2ccccc2)nc(N)c1C(=O)c1c(F)cccc1F [Cpd 32] .
> 100 µM

* * *

Target: UniProt P24941
Recorded IC50, one value per entry.

I would be grateful if you could share the reported IC50 for `CCCCOc1cc(NC(=O)Nc2ccccc2)nc(N)c1C(=O)c1c(F)cccc1F` .
≥ 100000 nM

Another compound: `CCCCOc1cc(Nc2ccc(S(=O)(=O)N(C)C)cc2)nc(N)c1C(=O)c1c(F)cccc1F`
620 nM

* * *

Target: VEGF-R2 kinase (Rattus norvegicus, UniProt O08775)
Sequence (O08775 786-1343): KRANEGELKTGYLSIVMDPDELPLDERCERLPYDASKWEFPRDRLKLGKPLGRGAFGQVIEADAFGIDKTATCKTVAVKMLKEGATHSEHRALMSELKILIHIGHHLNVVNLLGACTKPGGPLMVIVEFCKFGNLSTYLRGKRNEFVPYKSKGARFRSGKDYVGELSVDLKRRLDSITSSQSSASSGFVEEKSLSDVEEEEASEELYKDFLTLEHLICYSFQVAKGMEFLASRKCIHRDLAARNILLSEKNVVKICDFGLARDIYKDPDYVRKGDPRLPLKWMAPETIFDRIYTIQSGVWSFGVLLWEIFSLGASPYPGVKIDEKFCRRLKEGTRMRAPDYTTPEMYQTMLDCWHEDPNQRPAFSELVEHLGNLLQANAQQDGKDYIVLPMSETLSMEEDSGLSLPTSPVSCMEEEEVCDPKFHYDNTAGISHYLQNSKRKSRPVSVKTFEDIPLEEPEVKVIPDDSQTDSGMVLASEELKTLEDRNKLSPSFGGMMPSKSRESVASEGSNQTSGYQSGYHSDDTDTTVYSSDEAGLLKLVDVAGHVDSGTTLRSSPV
Recorded IC50, one value per entry.

Some solved entries appear below for comparison.
CN(C)S(=O)(=O)c1ccc(Nc2ccc(C(=O)c3ccccc3F)c(N)n2)cc1 = > 100 µM
CN(C)S(=O)(=O)c1ccc(Nc2ccc(C(=O)c3ccco3)c(N)n2)cc1 = > 100 µM

Now, please, on to the next compound.
I would be grateful if you could share the reported IC50 for `CCCCOc1cc(Nc2ccc(S(=O)(=O)N(C)C)cc2)nc(N)c1C(=O)c1c(F)cccc1F` .
> 100 µM
